tested on: ICS; experiment: qHTS profiling for inhibitors of Plasmodium falciparum proliferation (AID 504749); further: nearly all actives have a fitted effect of over 60% in size; further: potency means the concentration at half of the fitted maximal effect; conditions: P. falciparum in erythrocytes, SYBR Green DNA, 72 h; series mostly up to 12.8 µM
Results filed as inconclusive are left out. Calls of active or inactive are those of the source. The call rests on the fitted dose curve; in most records, active means well fitted inhibition curve with a large enough effect; inconclusive means small, poorly fitted or top-dose-only effect; inactive means flat fitted curve, though single readings scatter.
measurement-kind: Potency

Cn1c(=O)c2c(ncn2C[C@@H](O)CO)n(C)c1=O; inactive
C[N+]1(C)CCC[C@@H](OC(=O)C(O)(c2ccccc2)c2ccccc2)C1; inactive
O=c1[nH]cnc2c1ncn2C1OC(CO)C(O)C1O (stereo not given); inactive
CN(C)[C@H]1C(=O)C(C(=O)NCN2CCCC2)=C(O)[C@]2(O)C(=O)C3=C(O)c4c(O)cccc4[C@@](C)(O)[C@H]3C[C@@H]12; inactive

Q: Give its Potency value. Item: NC(=O)c1cc[n+](CC2=C(C(=O)O)N3C(=O)[C@@H](NC(=O)[C@H](c4ccccc4)S(=O)(=O)[O-])[C@@H]3SC2)cc1
Result: 355 nM (active)

---

Listed next: entries and their corresponding Potency.
biological target: Glucocorticoid receptor (Homo sapiens) (UniProt P04150); assay: GR-GFP Redistribution (AID 450); conditions: U2OS GR-GFP nuclear translocation, laser cytometry, 2 h; further: potency means the concentration at half of the fitted maximal effect
Sequence (P04150 whole entry, looked up): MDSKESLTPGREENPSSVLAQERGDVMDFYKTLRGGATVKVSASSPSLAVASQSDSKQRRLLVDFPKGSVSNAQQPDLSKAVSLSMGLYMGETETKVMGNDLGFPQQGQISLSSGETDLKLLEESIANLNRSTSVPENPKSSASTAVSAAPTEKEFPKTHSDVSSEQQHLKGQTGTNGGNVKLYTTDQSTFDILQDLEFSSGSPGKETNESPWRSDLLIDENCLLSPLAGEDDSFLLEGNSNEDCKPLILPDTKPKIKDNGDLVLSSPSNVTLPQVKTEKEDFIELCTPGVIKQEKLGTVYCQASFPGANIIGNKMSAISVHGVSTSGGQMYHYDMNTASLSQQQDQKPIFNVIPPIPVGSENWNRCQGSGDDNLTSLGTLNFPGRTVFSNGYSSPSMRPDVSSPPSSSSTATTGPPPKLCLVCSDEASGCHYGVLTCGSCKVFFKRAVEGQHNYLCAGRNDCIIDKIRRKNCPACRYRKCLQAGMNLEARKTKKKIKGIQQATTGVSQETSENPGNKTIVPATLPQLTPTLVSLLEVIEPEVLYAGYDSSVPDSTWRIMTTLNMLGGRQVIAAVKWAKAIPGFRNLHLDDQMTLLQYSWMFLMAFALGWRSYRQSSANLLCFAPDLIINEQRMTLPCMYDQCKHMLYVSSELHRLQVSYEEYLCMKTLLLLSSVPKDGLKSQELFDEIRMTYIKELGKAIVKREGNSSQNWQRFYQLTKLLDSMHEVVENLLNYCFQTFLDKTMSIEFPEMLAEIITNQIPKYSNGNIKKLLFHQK
Activity calls are given as the source filed them.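 Rule for the calls: active = compounds whose dose series gives a full or clear partial fitted curve of increased nuclear translocation; inconclusive = weak partial curve or effect only at the top dose; inactive = no dose-dependent translocation response.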

COc1cccc(-c2cncnc2NCc2cccc(C)c2)c1; > 46 µM (inactive)
CC(=O)NCCNc1nc(-c2ccccc2CN(C)C)nc2ccccc12; > 46 µM (inactive)
COc1ccc(-n2c(=O)c(C)nc3cnc(Nc4ccccc4)nc32)cc1; > 9.22 µM (inactive)
Cn1c(=O)c(-c2ccccc2)nc2cnc(OCc3ccccc3)nc21; > 9.22 µM (inactive)
COc1ccc(-c2nc3cnc(N4CCN(C)CC4)nc3n(CCC#N)c2=O)cc1; > 9.22 µM (inactive)

Q: Give its Potency value. Item: O=c1c(-c2cccc(F)c2)nc2cncnc2n1C1CC1
Result: > 9.22 µM (inactive)

Q: Give its Potency value. Item: Cc1cnc(CNc2cc(-c3ccccc3Cl)ncn2)cn1
Result: > 46 µM (inactive)

Q: Give its Potency value. Item: C[n+]1ccccc1/C=N\O
Result: > 20.6 µM (inactive)

Q: Give its Potency value. Item: O=c1c(-c2ccccc2)nc2cnc(Nc3ccccc3)nc2n1C[C@H]1CCCO1
Result: > 9.22 µM (inactive)

Q: Give its Potency value. Item: COc1ccc(Oc2ncc3nc(-c4cn(C)c5ccccc45)c(=O)n(CCC#N)c3n2)cc1
Result: > 9.22 µM (inactive)

Q: Give its Potency value. Item: Cc1noc(C)c1-c1nc(N(C)C)c2ccccc2n1
Result: > 46 µM (inactive)

---

Listed next: entries and their corresponding activity change, negative = inhibition.
assay: NFAT Signaling Pathway (AID 444); details: Jurkat NFAT-bla M1, carbachol, beta-lactamase ratio, 5 h; at 7.69 µM (top of the series) unless noted;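 further: carbachol stimulus at about its EC50 of 1 µM final; on the % scale 0 is the no-effect control and ±100 the full control effect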
Results filed as inconclusive are left out. Activity calls are given as the source filed them. Calls follow the shape of the dose curve; as a rule, active = well fitted curve in either direction with a large enough effect (not every such curve was filed as active); inconclusive = small, poorly fitted or top-dose-only effect, or another doubt; inactive = flat fitted curve, though single readings scatter.

Q: Give its activity change, negative = inhibition value. Item: CC(C)NC(=O)N1CC2(CCN(C(=O)c3cc(C(F)(F)F)cc(C(F)(F)F)c3)CC2)C1
Result: 6.43% (inactive)

Q: Give its activity change, negative = inhibition value. Item: COCCn1c(=O)c(-c2ccccc2)nc2cnc(N3CCN(C)CC3)nc21
Result: 7.66% (inactive)

Q: Give its activity change, negative = inhibition value. Item: COCCn1c(=O)c(C)nc2cnc(Nc3cccc(OC)c3)nc21
Result: 5.07% (inactive)

Q: Give its activity change, negative = inhibition value. Item: COc1ccc(-n2c(=O)c(-c3cccc(Cl)c3)nc3cncnc32)cc1
Result: -14.1% (inactive)

Q: Give its activity change, negative = inhibition value. Item: Cc1ccccc1-c1cc(N2CCNCC2)ncn1
Result: 15.7% (inactive)
